Experiment: Permeability across apical to basal side in human Caco-2 cells measured upto 2 hrs
Type: ADME, cell-based
Details: caco-2, 2 h
Each item that follows carries a reported permeability.

In [3]: df
Out[3]:
                                   molecule          result
0  COc1ccc(/S(C)=N\C(=O)C(C)(C)C)cc1 (configuration not stated)   69 10^-6 cm/s
1  N#C/N=S(\c1ccc(C(F)(F)F)cc1)C1CC1 (configuration not stated)  100 10^-6 cm/s
2  CC(=O)/N=S(\c1ccc(C(F)(F)F)cc1)C1CC1 (configuration not stated)   85 10^-6 cm/s
3  Cc1ccc(S(=O)(=NC(=O)C(C)(C)C)c2ccccc2)cc1 (configuration not stated)   51 10^-6 cm/s
4  FC(F)(F)c1ccc(/S(=N\c2ccccc2)C2CC2)cc1 (configuration not stated)   43 10^-6 cm/s
5  COc1ccc(/S(=N/C(=O)C(C)(C)C)c2ccc(C)cc2)cc1 (configuration not stated)   72 10^-6 cm/s
6  N=S(c1ccc(C(F)(F)F)cc1)c1cccnc1 (configuration not stated)   93 10^-6 cm/s
7  C[S+]([O-])c1ccc(C(F)(F)F)cc1 (configuration not stated)  130 10^-6 cm/s
8  CC(C)(C)C(=O)/N=S(\c1ccc(C(F)(F)F)cc1)C1CC1 (configuration not stated)   90 10^-6 cm/s
9  COC(=O)/N=S(\c1ccc(C(F)(F)F)cc1)C1CC1 (configuration not stated)   88 10^-6 cm/s

Kindly note the recorded permeability for CC(=O)/N=S(/c1ccccc1)c1ccc(C)cc1 (configuration not stated) , which is 85 10^-6 cm/s

Kindly note the recorded permeability for COC(=O)C(C(=O)OC)=S(NC(=O)C(C)(C)C)c1ccccc1 (configuration not stated) , which is > 10 10^-6 cm/s

###

Assay: Stability in mouse liver microsomes assessed as hepatic extraction ratio at 1 uM preincubated with compound followed by NADPH addition by LC-MS/MS analysis
Assay type: ADME, Microsome
Conditions: read-out: ERH
READOUT_KIND: hepatic extraction ratio at 1 µM

Here are 2 compounds together with their reported answers.
                                   compound                      readout_kind  measured_number
0  CCOC(=O)/C(=S(/NC(=O)C(C)(C)C)c1ccccc1)P(=O)(OCC)OCC (stereo unspecified)  hepatic extraction ratio at 1 µM             0.41
1  COC(=O)C(C(=O)OC)=S(NC(=O)C(C)(C)C)c1ccccc1 (stereo unspecified)  hepatic extraction ratio at 1 µM             0.63

A. N=S(c1ccc(C(F)(F)F)cc1)c1cccnc1 (stereo unspecified)
B. COC(=O)/N=S(\c1ccc(C(F)(F)F)cc1)C1CC1 (stereo unspecified)
Endpoint returns whichever of A and B has the numerically higher hepatic extraction ratio at 1 µM. Pick one; state its label.
B
(B: 0.38, A: 0.26)

###

Experiment: Apparent permeability of compound incubated for 5 hrs by PAMPA assay
Assay type: ADME
READOUT_KIND: Papp at 5 h (×10⁻⁶ cm/s)
Report as a plain number; the unit ×10⁻⁶ cm/s is understood.

Kindly note the recorded Papp at 5 h for `Cc1ccc(NC(=O)c2ccc(P(C)(C)=O)cc2)cc1Nc1nccc(-c2cccnc2)n1` , which is 0.043

###

Experiment: Stability in mouse liver microsomes assessed as hepatic extraction ratio at 1 uM preincubated with compound followed by NADPH addition by LC-MS/MS analysis
Type: ADME, Microsome
Conditions: read-out: ERH
READOUT_KIND: hepatic extraction ratio at 1 µM

Here are 4 molecules together with their reported answers.
>>> df
                                   molecule  measured_number
0  CC(=O)/N=S(/c1ccccc1)c1ccc(C)cc1 (stereo unspecified)             0.63
1  CC(C)(C)C(=O)/N=S(\c1ccc(C(F)(F)F)cc1)C1CC1 (stereo unspecified)             0.59
2  COc1ccc(/S(C)=N\C(=O)C(C)(C)C)cc1 (stereo unspecified)             0.65
3  Cc1ccc(NC(=O)c2ccc(P(C)(C)=O)cc2)cc1Nc1nccc(-c2cccnc2)n1             0.35

a. N#C/N=S(\c1ccc(C(F)(F)F)cc1)C1CC1 (stereo unspecified)
b. Cc1ccc(S(=N)(=O)c2ccccc2)cc1 (stereo unspecified)
Could you tell me which of a and b has the lower hepatic extraction ratio at 1 µM reading? Pick one; state its label.
a

###

Each item that follows carries a reported permeability.
Experiment: Permeability across apical to basal side in human Caco-2 cells measured upto 2 hrs
Format: ADME, cell-based
Settings: caco-2, 2 h

Here are 2 compounds together with their reported answers.
                                   compound         result
0              Cc1ccc(S(=O)(=O)c2ccccc2)cc1  39 10^-6 cm/s
1  CCOC(=O)/C(=S(/NC(=O)C(C)(C)C)c1ccccc1)P(=O)(OCC)OCC (stereo not drawn)  25 10^-6 cm/s

Now examine the next entry.
Kindly note the recorded permeability for Cc1ccc(S(=N)(=O)c2ccccc2)cc1 (stereo not drawn) , which is 93 10^-6 cm/s

###

Experiment: Chemical stability assessed as compound decomposition at pH 4 and 40 degreeC measured after 3 days by HPLC-UV analysis
Type: physicochemical
Conditions: buffer, time 3 day, read-out: Drug degradation
READOUT_KIND: degraded at 72 h (%)

Here are 2 compounds together with their reported answers.
                                   compound  measured_number
0  CC(C)(C)C(=O)/N=S(\c1ccc(C(F)(F)F)cc1)C1CC1 (centres undefined)                4
1  COC(=O)/N=S(\c1ccc(C(F)(F)F)cc1)C1CC1 (centres undefined)               10

P. COc1ccc(/S(=N/C(=O)C(C)(C)C)c2ccc(C)cc2)cc1 (centres undefined)
Q. CC(=O)/N=S(\c1ccc(C(F)(F)F)cc1)C1CC1 (centres undefined)
R. CCS(=N)c1ccc(C(F)(F)F)cc1 (centres undefined)
S. Cc1ccc(S(=O)(=NC(=O)C(C)(C)C)c2ccccc2)cc1 (centres undefined)
Task field, ranking: reported degraded at 72 h, descending order. Sort and list the labels as requested.
Q, R, P, S

###

Test: Chemical stability assessed as compound decomposition at pH 10 and 40 degreeC measured after 3 days by HPLC-UV analysis
Format: physicochemical
Conditions: buffer, time 3 day, read-out: Drug degradation
READOUT_KIND: degraded at 72 h (%)

Here are 5 molecules together with their reported answers.
>>> df
                                   molecule  units_text  measured_number
0  CC(=O)/N=S(\c1ccc(C(F)(F)F)cc1)C1CC1 (centres undefined)           %                8
1  COc1ccc(/S(=N/C(=O)C(C)(C)C)c2ccc(C)cc2)cc1 (centres undefined)           %                1
2  FC(F)(F)c1ccc(/S(=N\c2ccccc2)C2CC2)cc1 (centres undefined)           %                7
3  N=S(c1ccc(C(F)(F)F)cc1)c1cccnc1 (centres undefined)           %                1
4  CC(C)(C)C(=O)/N=S(\c1ccc(C(F)(F)F)cc1)C1CC1 (centres undefined)           %                3

P. CC(=O)/N=S(/c1ccccc1)c1ccc(C)cc1 (centres undefined)
Q. CCS(=N)c1ccc(C(F)(F)F)cc1 (centres undefined)
R. COC(=O)C(C(=O)OC)=S(NC(=O)C(C)(C)C)c1ccccc1 (centres undefined)
S. COC(=O)/N=S(\c1ccc(C(F)(F)F)cc1)C1CC1 (centres undefined)
T. Cc1ccc(S(=O)(=NC(=O)C(C)(C)C)c2ccccc2)cc1 (centres undefined)
I would appreciate it if you could sort these 5 molecules by degraded at 72 h, starting from the smallest number. Sort and list the labels as requested.
T, P, R, S, Q
(T: 0%, P: 4%, R: 7%, S: 11%, Q: 97%)

###

Assay: Efflux ratio in human Caco-2 cells measured upto 2 hrs
Type: ADME, cell-based
Details: caco-2, 2 h
READOUT_KIND: Ratio

                                    compound  measured_number
 0  CC(=O)/N=S(/c1ccccc1)c1ccc(C)cc1 (configuration not stated)              0.8
 1  CCOC(=O)/C(=S(/NC(=O)C(C)(C)C)c1ccccc1)P(=O)(OCC)OCC (configuration not stated)              1.9
 2  CC(C)(C)C(=O)/N=S(\c1ccc(C(F)(F)F)cc1)C1CC1 (configuration not stated)              0.7
 3  N=S(c1ccc(C(F)(F)F)cc1)c1cccnc1 (configuration not stated)              0.9
 4  CCS(=N)c1ccc(C(F)(F)F)cc1 (configuration not stated)              0.9
 5  Cc1ccc(S(=N)(=O)c2ccccc2)cc1 (configuration not stated)              0.8
 6  FC(F)(F)c1ccc(/S(=N\c2ccccc2)C2CC2)cc1 (configuration not stated)              0.7
 7  Cc1ccc(S(=N)C2CC2)cc1 (configuration not stated)              0.7
 8  N#C/N=S(\c1ccc(C(F)(F)F)cc1)C1CC1 (configuration not stated)              0.7
 9  CC(=O)/N=S(\c1ccc(C(F)(F)F)cc1)C1CC1 (configuration not stated)              0.7
10  C[S+]([O-])c1ccc(C(F)(F)F)cc1 (configuration not stated)              0.8
